Target chain: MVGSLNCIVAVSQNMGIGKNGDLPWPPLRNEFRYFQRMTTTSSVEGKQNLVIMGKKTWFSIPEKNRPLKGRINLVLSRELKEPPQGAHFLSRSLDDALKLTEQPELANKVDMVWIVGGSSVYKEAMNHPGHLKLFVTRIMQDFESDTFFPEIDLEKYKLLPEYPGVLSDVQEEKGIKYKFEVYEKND
property: Ki (µM)

structure | property | numeric result
N=C(N)Nc1nc2cc(Cl)c(Cl)cc2[nH]1 | Ki | 1.51
N=C(N)Nc1nc2ccccc2[nH]1 | Ki | 2.21
Cc1cc2nc(NC(=N)N)[nH]c2cc1C | Ki | 3.55
N=C(N)Nc1nc2cc(Cl)cc(Cl)c2[nH]1 | Ki | 4.36

Recorded values, source paper PMC11537224.
